These data points were gathered from patent US12435087B2.

Target: DCN1 (DCUND1) protein PONY domain (Homo sapiens (Human), UniProt Q96GG9)
Sequence (Q96GG9 60-248): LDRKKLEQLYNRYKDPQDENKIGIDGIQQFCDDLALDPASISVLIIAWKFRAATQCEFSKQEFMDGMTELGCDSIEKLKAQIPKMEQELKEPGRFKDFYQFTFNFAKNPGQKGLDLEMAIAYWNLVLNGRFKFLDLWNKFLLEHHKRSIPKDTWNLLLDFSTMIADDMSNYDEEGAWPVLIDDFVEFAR
Test: TR-FRET assay (binding to DCN-1, displacement of FAM-labeled probe)
Settings: TR FRET IC50 1 hr (nM), 1 hr after treatment with compound
Procedure: The TR-FRET assay was designed following the Scott et al. protocol (Scott et al., Nat Chem Biol. 2017 August; 13(8): 850-857. doi:10.1038/nchembio.2386). […] The TR-FRET ratio between Tb-DCN1 and the FAM-labeled probe was measured in a 384-well opti-plate (Perkin Elmer) using a plate reader (BMG) at 1, 5, and 24 hrs after treatment with compound (final DMSO concentration of 0.1%). […]
Overview of reported IC50 across a group of compounds:

INSERT INTO assay_data (compound, endpoint_value) VALUES
  ('CCN1C(=O)[C@H](NC(=O)c2cccc(C(F)(F)F)c2)[C@@H](c2cccc(CNC(=O)C3=CCCN(C)C3)c2)c2cnn(-c3ccccc3)c21', '1000 to 3000 nM');

Query: # IC50 lookup, item C/C=C(\CN1CCN(C2COC2)CC1)C(=O)NCc1cccc([C@@H]2c3cnn(-c4ccccc4)c3N(CC)C(=O)[C@H]2NC(=O)c2cccc(C(F)(F)F)c2)c1
Result: 200 to 1000 nM

Query: Next record, please: C=C(CN1CCN(C2COC2)CC1)C(=O)NCc1cccc([C@@H]2c3cnn(-c4ccccc4)c3N(CC)C(=O)[C@H]2NC(=O)c2nccc(C(F)(F)F)n2)n1 [Compound I-354]
Result: 1000 to 3000 nM

Query: Next record, please: C=C(CN1CC2CC1CO2)C(=O)NCc1cccc([C@H]2c3c(C)nn(-c4ccccc4)c3N(CC)C(=O)[C@@H]2NC(=O)c2cccc(C(F)(F)F)c2)c1 (some centres unmarked)
Result: 200 to 1000 nM

Query: Next record, please: C=C(CN1CCOCC1)C(=O)NCc1cccc([C@H]2c3cnn(-c4ccccc4)c3N(CC)C(=O)[C@@H]2NC(=O)c2cccc(C(F)(F)F)c2)c1
Result: 1000 to 3000 nM

Query: Next record, please: C=C(C)S(=O)(=O)Nc1cccc([C@H]2c3c(C)nn(-c4ccccc4)c3N(CC)C(=O)[C@@H]2NC(=O)c2cccc(C(F)(F)F)c2)c1 (racemic)
Result: 1000 to 3000 nM

Query: Next record, please: CCN1C(=O)[C@@H](NC(=O)c2cccc(C(F)(F)F)c2)[C@H](c2cc(F)cc(NC(=O)/C=C/CN(C)C)c2)c2cnn(-c3ccccc3)c21
Result: 1000 to 3000 nM

Query: Next record, please: C/C=C(\CN1CC2(COC2)C1)C(=O)N(C)Cc1cccc([C@@H]2c3cnn(-c4ccccc4)c3N(CC)C(=O)[C@H]2NC(=O)c2ccn(C(F)(F)F)n2)c1
Result: 1000 to 3000 nM

Query: Next record, please: C=C(CN1CCC(F)(F)C1)C(=O)NCc1cccc([C@@H]2c3cnn(-c4ccccc4)c3N(CC)C(=O)[C@H]2NC(=O)c2cccc(C(F)(F)F)c2)c1
Result: 200 to 1000 nM

Query: Next record, please: CCN1C(=O)[C@H](NC(=O)c2cccc(C(F)(F)F)c2)[C@@H](c2cccc(NC(=O)C#CCN3CCOCC3)c2)c2c(C)nn(-c3ccccc3)c21 (racemic) [Compound I-35]
Result: 1000 to 3000 nM

Query: Next record, please: CCC(=O)NCc1cccc([C@@H]2c3cnn(-c4ccccc4)c3N(CC)C(=O)[C@H]2NC(=O)c2nccc(C(F)(F)F)n2)c1
Result: 1000 to 3000 nM

----------
Target: DCN1 (DCUND1) protein PONY domain (Homo sapiens (Human))
Experiment: TR-FRET assay (binding to DCN-1, displacement of FAM-labeled probe)
Settings: 24 hr after treatment with compound; read-out: TR FRET IC50 24 hr
Overview of reported IC50 across a group of compounds:

Take a look at these entries with their results.
INSERT INTO measurements (compound, endpoint_value) VALUES
  ('C=C(CN1CC2(COC2)C1)C(=O)NCc1cccc([C@H]2c3cnn(-c4ccccc4)c3N(CC)C(=O)[C@H]2NC(=O)c2cccc(C(F)(F)F)c2)c1', '200 to 1000 nM'),
  ('CCN1C(=O)[C@@H](NC(=O)c2cccc(C(F)(F)F)c2)[C@H](c2ccccc2CNC#N)c2cnn(-c3ccccc3)c21 (racemic)', '1000 to 3000 nM'),
  ('CCC(=O)NCc1cccc([C@@H]2c3cnn(-c4ccccc4)c3N(CC)C(=O)[C@H]2NC(=O)c2nccc(C(F)(F)F)n2)c1', '1000 to 3000 nM'),
  ('CCN1C(=O)[C@H](NC(=O)c2cccc(C(F)(F)F)c2)[C@@H](c2cccc(CNC(=O)C3=CCCN(C)C3)c2)c2cnn(-c3ccccc3)c21', '1000 to 3000 nM'),
  ('C=C(CN(C)C1COC1)C(=O)N(C)Cc1cccc([C@@H]2c3cnn(-c4ccccc4)c3N(CC)C(=O)[C@H]2NC(=O)c2csc(C(F)(F)F)n2)c1', '≤ 200 nM');

Here is the next item to consider.
Query: For DCN1 (DCUND1) protein PONY domain (Homo sapiens (Human)), provide IC50 of C=C(CN1CC2(COC2)C1)C(=O)Nc1cccc([C@@H]2c3c(C)nn(-c4ccccc4)c3N(CC)C(=O)[C@H]2NC(=O)c2cccc(C(F)(F)F)c2)c1 (racemic) please.
Result: ≤ 200 nM

----------
Overview of reported Emax across a group of compounds:
Target: DCN1 protein (Homo sapiens (Human), UniProt Q96GG9)
Sequence (Q96GG9 whole entry): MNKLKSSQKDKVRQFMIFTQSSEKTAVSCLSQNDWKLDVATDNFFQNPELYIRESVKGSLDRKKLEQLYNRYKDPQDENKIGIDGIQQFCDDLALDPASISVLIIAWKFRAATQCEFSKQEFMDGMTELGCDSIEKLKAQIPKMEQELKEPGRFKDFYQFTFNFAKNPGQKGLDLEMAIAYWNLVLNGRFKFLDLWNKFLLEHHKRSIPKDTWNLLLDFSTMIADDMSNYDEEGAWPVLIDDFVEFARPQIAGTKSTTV
Assay: Intact protein MS analysis with the RapidFire-TOF system (covalent adduct formation)
Assay type: binding
Settings: 400 nM DCN1, incubated at room temperature for 3 hours

Take a look at these entries with their results.
INSERT INTO assay_data (compound, target_or_test_system, reported_endpoint, endpoint_value) VALUES
  ('CCN1C(=O)[C@H](NC(=O)c2cccc(C(F)(F)F)c2)[C@@H](c2ccccc2NC(=O)/C=C/C(F)(F)F)c2cnn(-c3ccccc3)c21 (racemic)', 'DCN1 protein (Homo sapiens (Human), UniProt Q96GG9)', 'Emax', '0 to 30%'),
  ('C=C(CN1CCC1)C(=O)NCc1cccc([C@@H]2c3cnn(-c4ccccc4)c3N(CC)C(=O)[C@H]2NC(=O)c2cccc(C(F)(F)F)c2)c1', 'DCN1 protein (Homo sapiens (Human), UniProt Q96GG9)', 'Emax', '80 to 100%'),
  ('C=C(CN1CC2(COC2)C1)C(=O)N(C)Cc1cccc([C@@H]2c3cnn(-c4ccccc4)c3N(CC)C(=O)[C@H]2NC(=O)c2cccc(C(F)(F)F)c2)c1', 'DCN1 protein (Homo sapiens (Human), UniProt Q96GG9)', 'Emax', '80 to 100%');

Query: # Emax lookup, item CCN1C(=O)[C@@H](NC(=O)c2cccc(C(F)(F)F)c2)[C@H](c2ccccc2NC(=O)CCl)c2cnn(-c3ccccc3)c21
Result: 80 to 100%

Query: Next record, please: CCN1C(=O)[C@H](NC(=O)c2cccc(C(F)(F)F)c2)[C@@H](c2ccccc2NC(=O)C(Cl)Cl)c2cnn(-c3ccccc3)c21 (racemic)
Result: 0 to 30%

Query: Next record, please: CCN1C(=O)[C@H](NC(=O)c2cccc(C(F)(F)F)c2)[C@@H](c2cccc(NC(=O)[C@H](F)Cl)c2)c2c(C)nn(-c3ccccc3)c21 (mixture of isomers)
Result: 80 to 100%

Query: Next record, please: C=CS(=O)(=O)Nc1cccc([C@H]2c3c(C)nn(-c4ccccc4)c3N(CC)C(=O)[C@@H]2NC(=O)c2cccc(C(F)(F)F)c2)c1 (racemic)
Result: 80 to 100%

Query: Next record, please: CCN1C(=O)[C@H](NC(=O)c2cccc(C(F)(F)F)c2)[C@@H](c2ccccc2NC(=O)C2=CCCC2)c2cnn(-c3ccccc3)c21 (racemic)
Result: 0 to 30%

Query: Next record, please: CCN1C(=O)[C@@H](NC(=O)c2cccc(C(F)(F)F)c2)[C@@H](c2cccc(NC(=O)CCl)c2)c2c(C)nn(-c3ccccc3)c21 (racemic)
Result: 0 to 30%

Query: Next record, please: C=C(C(=O)NCc1cccc([C@@H]2c3cnn(-c4ccccc4)c3N(CC)C(=O)[C@H]2NC(=O)c2csc(C(F)(F)F)n2)c1)C(C)(C)N(C)C1COC1
Result: 80 to 100%

Query: Next record, please: CCN1C(=O)[C@@H](NC(=O)c2cccc(C(F)(F)F)c2)[C@@H](c2cccc(NC(=O)/C=C/CN3CCOCC3)c2)c2c(C)nn(-c3ccccc3)c21 (racemic)
Result: 0 to 30%

Query: Next record, please: CCN1C(=O)[C@H](NC(=O)c2cccc(C(F)(F)F)c2)[C@@H](c2cccc(N3CC=CC3=O)c2)c2c(C)nn(-c3ccccc3)c21 (racemic)
Result: 80 to 100%

Query: Next record, please: CCN1C(=O)[C@@H](NC(=O)c2nccc(C(F)(F)F)n2)[C@H](c2cccc(NC(=O)C3=CCN(C)C3)c2)c2c(C)nn(-c3ccccc3)c21
Result: 80 to 100%

Query: Next record, please: CCN1C(=O)[C@@H](NC(=O)c2cccc(C(F)(F)F)c2)[C@@H](c2cccc(NC#N)c2)c2c(C)nn(-c3ccccc3)c21 (racemic)
Result: 0 to 30%
